Reported cell viability by item:
System: NOMO1
Test Method Notes: cell viability relative to DMSO control; higher = less cytotoxic
Setup Conditions: RPMI 5 mM glucose + 10% dialyzed FBS; 48 h; 0.19 µM
Express your answer in %, writing the number without its unit.

Compound	Measurement
COc1cccc2cc(-c3nc(C4CCC(C(=O)O)CC4)n4ncnc(N)c34)[nH]c12 (centres undefined)	105
COC1=CC2=NC=CC(=C2C=C1)OC3=CN=C(NC(=O)C/4=C(C)/N(CC(C)(C)O)N(C4=O)C5=CC=CC=C5)C=C3	83.1
CN\1C(=O)/C(=C(\N=C1N2CCCC[S+]2([O-])=O)C(=O)NCC3=CC=C(F)C=C3)O	119
COc1ccc(CC2NCCc3cc(OC)c(OC)cc32)cc1OC (centres undefined)	89.2

Look up cell viability for this compound: `CC(=O)Nc1ccc(OC[C@](C)(O)C(=O)Nc2ccc([N+](=O)[O-])c(C(F)(F)F)c2)cc1`
86.1

Proceed to Cc1ccccc1N1C(=O)c2cc([S+](N)(=O)[O-])c(Cl)cc2NC1C (centres undefined)
119

Proceed to `CC(=O)O.Cc1c(-c2ccc(O)cc2)n(Cc2ccc(OCCN3CCCCCC3)cc2)c2ccc(O)cc12`
107

Proceed to CN1[C@@H]2CC[C@H]1CC(OC(=O)c1c[nH]c3ccccc13)C2 (some centres undefined)
115

Proceed to `C[C@](O)(COc1ccc(C#N)cc1)C(=O)Nc1ccc(C#N)c(C(F)(F)F)c1`
97.2
